Each entry below carries its recorded growth inhibition.
# Assay remarks: NCI Yeast Anticancer Drug Screen. Data for the mec2-1 strain (AID 157)
# Measurement parameters: S. cerevisiae mec2-1 strain, at 5.0 µM (retest, dose inferred, filed as 0.5), active compounds read high
Compounds without any hit were thinned out: in the full panel of roughly 79,000, 15% have a hit.

- Molecule: "O=C(O)c1ccccc1N=N/C(=N\\Nc1cc(S(=O)(=O)O)ccc1O)c1ccccc1"
  Readout units: "%"
  growth inhibition: -5
- Molecule: "CN(Cc1ccccc1)CC(O)c1ccc(/C=C/c2ccc(Cl)cc2)cc1 (stereo not drawn)"
  Readout units: "%"
  growth inhibition: 38
- Molecule: "O=C(OCCCN1CCCC1)C(c1ccccc1)C1CCCCC1 (stereo not drawn)"
  Readout units: "%"
  growth inhibition: 9
